- Test system: human MRC-5 fibroblasts
- Procedure details: Qualitative evaluation of cytotoxicity by microscopic examination
- Condition parameters: 1 h exposure, mean ± SD of scores
Readings of cytotoxicity score (microscopic examination) for the listed molecules
Endpoint label: cytotoxicity score (microscopic examination)

| Molecule | Subject of test | Value observed |
| --- | --- | --- |
| [Cl-].[Na+] [NaCl 3.53%, NaCl] | human MRC-5 fibroblasts | 2 |
| O=S(=O)([O-])CCS.[Na+] [Mesna 5%, Sodium 2-mercaptoethanesulfonate] | human MRC-5 fibroblasts | 1.5 |
| Oc1ccccc1 | human MRC-5 fibroblasts | 3.0 |
| [Cl-].[Na+] [NaCl 1.76%, NaCl] | human MRC-5 fibroblasts | 1.0 |
| [Cl-].[Na+] [NaCl 7.06%, NaCl] | human MRC-5 fibroblasts | 2.5 |
| O=S(=O)([O-])CCS.[Na+] [Mesna 20%, Sodium 2-mercaptoethanesulfonate] | human MRC-5 fibroblasts | 2.0 |
| O=S(=O)([O-])CCS.[Na+] [Mesna 10%, Sodium 2-mercaptoethanesulfonate] | human MRC-5 fibroblasts | 1.0 |

====

Readings of cytotoxicity score (microscopic examination) for the listed molecules
- Test system: human MRC-5 fibroblasts
- Procedure details: Qualitative evaluation of cytotoxicity by microscopic examination
- Condition parameters: 24 h exposure, mean ± SD of scores
Endpoint label: cytotoxicity score (microscopic examination)

| Molecule | Subject of test | Value observed |
| --- | --- | --- |
| [Cl-].[Na+] [NaCl 7.06%, NaCl] | human MRC-5 fibroblasts | 4 |
| Oc1ccccc1 | human MRC-5 fibroblasts | 4.0 |
| O=S(=O)([O-])CCS.[Na+] [Mesna 5%, Sodium 2-mercaptoethanesulfonate] | human MRC-5 fibroblasts | 4 |
| O=S(=O)([O-])CCS.[Na+] [Mesna 20%, Sodium 2-mercaptoethanesulfonate] | human MRC-5 fibroblasts | 4.0 |
| O=S(=O)([O-])CCS.[Na+] [Mesna 10%, Sodium 2-mercaptoethanesulfonate] | human MRC-5 fibroblasts | 4 |
| [Cl-].[Na+] [NaCl 1.76%, NaCl] | human MRC-5 fibroblasts | 4.0 |
| [Cl-].[Na+] [NaCl 3.53%, NaCl] | human MRC-5 fibroblasts | 4 |

====

- Test system: human MRC-5 fibroblasts
- Procedure details: Quantitative evaluation of cytotoxicity, viability assay using MU reagent
- Type: cell-based
- Condition parameters: 8 h exposure
Cut-off 10% on percentage of cell viability compared to culture medium (100% of viability): below means fulfilled, at or above means not fulfilled.

| Compound | Discrete label |
| --- | --- |
| [Cl-].[Na+] [NaCl 1.76%, NaCl] | not fulfilled |
| O=S(=O)([O-])CCS.[Na+] [Mesna 10%, Sodium 2-mercaptoethanesulfonate] | fulfilled |
| [Cl-].[Na+] [NaCl 3.53%, NaCl] | not fulfilled |
| O=S(=O)([O-])CCS.[Na+] [Mesna 5%, Sodium 2-mercaptoethanesulfonate] | fulfilled |
| [Cl-].[Na+] [NaCl 7.06%, NaCl] | not fulfilled |
| O=S(=O)([O-])CCS.[Na+] [Mesna 20%, Sodium 2-mercaptoethanesulfonate] | not fulfilled |
| Oc1ccccc1 [Phenol 0.5%, Phenol] | not fulfilled |

====

- Tested on: human MRC-5 fibroblasts
- Procedure details: Quantitative evaluation of cytotoxicity, viability assay using MU reagent
- Type: cell-based
- Condition parameters: 2 h exposure
Endpoint label: percentage of cell viability compared to culture medium (100% of viability) (%)

| Compound | Subject of test | Measurement unit | Value observed |
| --- | --- | --- | --- |
| O=S(=O)([O-])CCS.[Na+] [Mesna 5%, Sodium 2-mercaptoethanesulfonate] | human MRC-5 fibroblasts | % | 39.7 |
| [Cl-].[Na+] [NaCl 7.06%, NaCl] | human MRC-5 fibroblasts | % | 12.3 |
| [Cl-].[Na+] [NaCl 1.76%, NaCl] | human MRC-5 fibroblasts | % | 75.5 |
| Oc1ccccc1 [Phenol 0.5%, Phenol] | human MRC-5 fibroblasts | % | 13.6 |
| O=S(=O)([O-])CCS.[Na+] [Mesna 20%, Sodium 2-mercaptoethanesulfonate] | human MRC-5 fibroblasts | % | 11.8 |
| O=S(=O)([O-])CCS.[Na+] [Mesna 10%, Sodium 2-mercaptoethanesulfonate] | human MRC-5 fibroblasts | % | 4.1 |
| [Cl-].[Na+] [NaCl 3.53%, NaCl] | human MRC-5 fibroblasts | % | 12.7 |
